Reference source for all entries: patent US20230381229A1

TGT: PD-1 expressed on cells (human)
Sequence (chain, as listed by the source): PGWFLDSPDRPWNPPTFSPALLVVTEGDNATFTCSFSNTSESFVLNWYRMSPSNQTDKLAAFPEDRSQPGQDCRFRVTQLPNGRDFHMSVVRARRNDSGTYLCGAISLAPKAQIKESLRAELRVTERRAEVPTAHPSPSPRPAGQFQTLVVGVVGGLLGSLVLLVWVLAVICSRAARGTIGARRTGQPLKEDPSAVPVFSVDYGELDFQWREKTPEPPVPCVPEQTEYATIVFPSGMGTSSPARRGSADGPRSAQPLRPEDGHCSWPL
EXPERIMENT SUMMARY: flow cytometry, cells expressing PD-1
READOUT LABEL: MFI at 20 nM
Output spec: single numeric token, no unit.

[
  {
    "BINDER": "variant PD-L1 ECD-Fc I36T, M97L, Q155H, F193S, N201Y (Fc fusion) FTVTVPKDLYVVEYGSNMTIECKFPVEKQLDLAALTVYWEMEDKNIIQFVHGEEDLKVQHSSYRQRARLLKDQLSLGNAALQITDVKLQDAGVYRCLISYGGADYKRITVKVNAPYNKINQRILVVDPVTSEHELTCQAEGYPKAEVIWTSSDHHVLSGKTTTTNSKREEKLFNVTSTLRINTTTNEIFYCTSRRLDPEEYHTAELVIPELPLAHPPNER",
    "MFI at 20 nM": 69
  },
  {
    "BINDER": "variant PD-L1 ECD-Fc Y10F, M18V, S99G, Q138R, T203A (Fc fusion) FTVTVPKDLFVVEYGSNVTIECKFPVEKQLDLAALIVYWEMEDKNIIQFVHGEEDLKVQHSSYRQRARLLKDQLSLGNAALQITDVKLQDAGVYRCMIGYGGADYKRITVKVNAPYNKINQRILVVDPVTSEHELTCRAEGYPKAEVIWTSSDHQVLSGKTTTTNSKREEKLFNVTSTLRINTTTNEIFYCTFRRLDPEENHAAELVIPELPLAHPPNER",
    "MFI at 20 nM": 70
  },
  {
    "BINDER": "variant PD-L1 ECD-Fc I36S, M41K, M97L, K144Q, R195G, E200K, H202Q, L206F (Fc fusion) FTVTVPKDLYVVEYGSNMTIECKFPVEKQLDLAALSVYWEKEDKNIIQFVHGEEDLKVQHSSYRQRARLLKDQLSLGNAALQITDVKLQDAGVYRCLISYGGADYKRITVKVNAPYNKINQRILVVDPVTSEHELTCQAEGYPQAEVIWTSSDHQVLSGKTTTTNSKREEKLFNVTSTLRINTTTNEIFYCTFRGLDPEKNQTAEFVIPELPLAHPPNER",
    "MFI at 20 nM": 3500
  }
]

Consider now this further binder.
Give MFI at 20 nM for variant PD-L1 ECD-Fc I36T, I83T, M97L, K144E, P198T (Fc fusion) FTVTVPKDLYVVEYGSNMTIECKFPVEKQLDLAALTVYWEMEDKNIIQFVHGEEDLKVQHSSYRQRARLLKDQLSLGNAALQTTDVKLQDAGVYRCLISYGGADYKRITVKVNAPYNKINQRILVVDPVTSEHELTCQAEGYPEAEVIWTSSDHQVLSGKTTTTNSKREEKLFNVTSTLRINTTTNEIFYCTFRRLDTEENHTAELVIPELPLAHPPNER
62
